- Tested on: IL-2
- assay.details: Inhibition of IL-2 production in phytohemagglutinin-activated human PBMCs (sandwich ELISA)
- Format: cell-based
- condition: Homo sapiens, PBMC, 46 h, approximately 46 hours, read-out: IL-2 pIC50 (converted)
Reported IC50 values for a set of compounds
measured.attribute: IC50

• O=C1Nc2ccccc2/C1=C\c1ccc(Cl)c(Cl)c1 = 1 nM
• O=C1Nc2ccccc2/C1=C\c1cc(Br)cs1 = 6.31 nM
• Cc1ccc(/C=C2\C(=O)Nc3ccccc32)c(C)c1 = 631 nM
• COc1ccc(OC)c(/C=C2/C(=O)Nc3c(Br)cccc32)c1 = 10 nM
• O=C1Nc2ccccc2/C1=C\c1cccc(Cl)c1 = 10 nM
• COc1ccc(OC)c(/C=C2/C(=O)Nc3ccccc32)c1 [drawing 114] = 3.98 nM

----------
Entries and their measured IC50 follow.
- Test system: IL-2
- assay.details: Inhibition of IL-2 production in phytohemagglutinin-activated human PBMCs (sandwich ELISA)
- Type: cell-based
- condition: Homo sapiens, PBMC, 46 h, approximately 46 hours, read-out: IL-2 pIC50 (converted)
- Procedure: Peripheral blood mononuclear cells (PBMCs) were isolated from human blood. The lymphocytes, a fraction of the PBMCs, were activated to secrete IL-2 using the polyclonal mitogen phytohemagglutinin. […] After 46 hours the cells were centrifuged down for 25 minutes at 1000×g and the supernatants were transferred to transferred to microtiter wells precoated with a monoclonal antibody against human IL-2. The IL-2 concentration in the supernatants was determined by a sandwich ELISA. […]
measured.attribute: IC50 (nM)

* Cc1cc(C(=O)NCCCC2CCN(C=O)CC2)[nH]c1/C=C1\C(=O)Nc2ccccc21 | 50.1
* COc1cc[nH]c1/C=C1\C(=O)Nc2cccc(Cl)c21 | 0.1
* O=C1Nc2ccccc2/C1=C\c1ccoc1 | 631
* Cc1cc(C)c(/C=C2\C(=O)Nc3cccc(C(=O)O)c32)[nH]1 | 100
* Cc1cc(C(=O)OCc2ccncc2)[nH]c1/C=C1\C(=O)Nc2ccccc21 | 31.6
* O=C1Nc2ccccc2/C1=C/c1ccc2ccccc2c1 | 631
* COc1ccc(O)c(/C=C2\C(=O)Nc3ccccc32)c1 | 200
* Cc1[nH]c2ccccc2c1/C=C1/C(=O)Nc2ccccc21 [drawing 197] | 794
* Cc1[nH]c(/C=C2\C(=O)Nc3ccccc32)c(C)c1Cl | 1
* COc1cc[nH]c1/C=C1\C(=O)Nc2ccccc21 | 20
* O=C1Nc2ccc(O)cc2/C1=C/c1c[nH]c2ccccc12 | 79.4
* CCN(CC)CCNC(=O)c1cc(C)c(/C=C2\C(=O)Nc3ccccc32)[nH]1 | 39.8
* O=C1Nc2ccccc2/C1=C\c1ccc(Br)s1 | 20
* COc1ccc(OC)c(/C=C2/C(=O)Nc3c(C#N)cccc32)c1 | 31.6
* O=C1Nc2ccccc2/C1=C\c1ccc(-c2ccccc2)o1 | 3.98
* COc1cc[nH]c1/C=C1\C(=O)Nc2ccc(Cl)cc21 | 50.1
* COc1cc(/C=C2/C(=O)Nc3ccccc32)ccc1O | 100
* O=C1Nc2ccccc2/C1=C/c1c[nH]c2cccc(OCc3ccccc3)c12 | 100
* COc1ccc(OC)c(/C=C2/C(=O)Nc3cc(C(F)(F)F)ccc32)c1 | 10
* COc1ccc(OC)c(/C=C2/C(=O)Nc3ccc(Cl)cc32)c1 | 6.31
* CCCn1cc(/C=C2\C(=O)Nc3ccccc32)c2ccccc21 [drawing 137] | 0.2
* O=C1Nc2ccccc2/C1=C\c1cc(Cl)ccc1Cl | 3.16
* O=C1Nc2c(F)cc(F)cc2/C1=C/c1c[nH]c2ccccc12 | 2

----------
- Test system: IL-2
- assay.details: Inhibition of IL-2 production in phytohemagglutinin-activated human PBMCs (sandwich ELISA)
- Type: cell-based
- condition: Homo sapiens, PBMC, 46 h, approximately 46 hours, read-out: IL-2 pIC50 (converted)
// thresholds for IC50 classes: low = under 0.02 µM, middle = from 0.02 µM up to 0.08 µM, high = 0.08 µM and over

• Cc1cc(CO)[nH]c1/C=C1\C(=O)Nc2ccccc21 [drawing 144] = middle
• O=C1Nc2ccccc2/C1=C/c1ccccc1F = middle
• Cn1cc(/C=C2\C(=O)Nc3ccccc32)c2ccccc21 = low
• O=C1Nc2ccccc2/C1=C\c1ccc(O)cc1O = high
• Cc1ccc(/C=C2/C(=O)Nc3ccccc32)c(C)c1 = low
• COc1cccc(/C=C2/C(=O)Nc3ccccc32)c1 = low
• O=C1Nc2ccccc2/C1=C\c1c(-c2ccccc2)[nH]c2ccccc12 = high
• Cc1cc(C(=O)O)[nH]c1/C=C1\C(=O)Nc2ccccc21 = high
• COc1ncc(/C=C2/C(=O)Nc3ccccc32)c(OC)n1 = low
• CCOC(=O)CCn1cc(/C=C2\C(=O)Nc3ccccc32)c2ccccc21 = high
• CCOC(=O)c1cc(C)c(/C=C2\C(=O)Nc3ccccc32)[nH]1 [drawing 139] = low
• O=C1Nc2ccc(Cl)cc2/C1=C/c1ccccc1O = high
• COc1ccc(OC)c(/C=C2/C(=O)Nc3cc(Br)ccc32)c1 [drawing 164] = low
• COc1ccc(CN2C(=O)/C(=C\c3[nH]c(C)cc3C)c3ccccc32)cc1 = middle
• Cn1c(/C=C2/C(=O)Nc3ccccc32)cc2ccccc21 = high
• Cc1cc(C(=O)NCCO)[nH]c1/C=C1\C(=O)Nc2ccccc21 [drawing 176] = middle

----------
- Test system: IL-2
- assay.details: Inhibition of IL-2 production in phytohemagglutinin-activated human PBMCs (sandwich ELISA)
- Type: cell-based
- condition: Homo sapiens, PBMC, 46 h, approximately 46 hours, read-out: IL-2 pIC50 (converted)
# strict inequality: IC50 < 20 nM yields YES, everything else yields NO

• Cc1[nH]c(/C=C2\C(=O)Nc3ccccc32)c(C)c1CCC(=O)O = NO
• Cc1cc(C)c(/C=C2\C(=O)Nc3cccc(Cl)c32)[nH]1 = YES
• CCn1c2ccccc2c2cc(/C=C3/C(=O)Nc4ccccc43)ccc21 = NO
• CC(C)(C)OC(=O)N1C(=O)/C(=C\c2c[nH]c3ccccc23)c2ccccc21 = YES
• O=C1Nc2ccccc2/C1=C/c1cn(Cc2ccccc2)c2ccccc12 = YES
• O=C1Nc2ccccc2/C1=C/c1c[nH]c2cc(F)ccc12 = YES
• Cc1cc(C[n+]2ccccc2)[nH]c1/C=C1\C(=O)Nc2ccccc21 = YES
• COc1ccc(OC)c(/C=C2/C(=O)Nc3ccc(C(F)(F)F)cc32)c1 = NO
• O=C1Nc2ccccc2/C1=C\c1cc(OC(F)(F)F)ccc1O = NO
• Cc1cccc(COc2ccc(/C=C3/C(=O)Nc4ccccc43)cc2)n1 = NO
• COc1cc(/C=C2/C(=O)Nc3ccccc32)c(OCc2ccccc2)cc1OC = NO
• O=C1Nc2ccccc2/C1=C/c1c[nH]c2ccccc12 = YES
• CCOc1ccc(OCC)c(/C=C2/C(=O)Nc3ccccc32)c1 = NO
• Cc1cc(C(=O)NCCc2c[nH]c3ccccc23)[nH]c1/C=C1\C(=O)Nc2ccccc21 = NO
• O=C1Nc2ccccc2/C1=C\c1ccc([N+](=O)[O-])s1 = NO
• O=C1Nc2ccccc2/C1=C\c1cccc(Br)c1 = YES
• COc1ccc2[nH]cc(/C=C3\C(=O)Nc4ccccc43)c2c1 = YES
• O=C(O)Cn1cc(/C=C2\C(=O)Nc3ccccc32)c2ccccc21 [drawing 229] = NO

----------
- Tested on: IL-2
- assay.details: Inhibition of IL-2 production in phytohemagglutinin-activated human PBMCs (sandwich ELISA)
- Assay type: cell-based
- condition: Homo sapiens, PBMC, 46 h, approximately 46 hours, read-out: IL-2 pIC50 (converted)
measured.attribute: log10 IC50 (log10 of the value in µM)

- COc1ccc(O)c(/C=C2/C(=O)Nc3ccccc32)c1: -0.50
- COc1ccc(OC)c(/C=C2/C(=O)Nc3c(F)cc(F)cc32)c1: -2.00
- Cc1ccc(/C=C2\C(=O)Nc3ccccc32)cc1C: -1.30
- O=C(O)CCn1cc(/C=C2\C(=O)Nc3ccccc32)c2ccccc21: -0.70
- Cc1cc(C(=O)NCC2(c3ccc(Cl)cc3)CC2)[nH]c1/C=C1\C(=O)Nc2ccccc21: -1.20
- COc1ccc(OC)c(/C=C2/C(=O)Nc3cc(Cl)ccc32)c1: -1.50
- O=C1Nc2ccccc2/C1=C\c1cc(Br)ccc1Br: -1.40
- O=C1Nc2ccccc2/C1=C\c1ccc2cc[nH]c2c1: -2.20
- O=C1Nc2ccccc2/C1=C\c1cc(Cl)cc(Cl)c1OCc1ccc2ccccc2n1: -1.00
- O=C1Nc2ccccc2/C1=C\c1c[nH]c2c(F)c(F)c(F)c(F)c12: -2.70
- COc1ccc(OC)c(/C=C2/C(=O)Nc3cc(S(C)(=O)=O)ccc32)c1: -0.10
- O=C1Nc2ccc(Br)cc2/C1=C/c1c[nH]c2ccccc12: -2.70
- Cc1cc(C(=O)NCCCCCO)[nH]c1/C=C1\C(=O)Nc2ccccc21: -1.20
- O=C1Nc2ccccc2/C1=C\c1ccc(Cl)cc1Cl: -3.00
- Cc1cc(C)c(/C=C2\C(=O)Nc3cccc(C)c32)[nH]1: -1.40
- Cc1cc(C)c(/C=C2\C(=O)Nc3ccc(F)cc32)[nH]1: -1.00
- O=C1Nc2cc(Cl)ccc2/C1=C/c1c[nH]c2ccccc12: -1.20
- Cn1cc(/C(C(=O)O)=C2\C(=O)Nc3ccccc32)c2ccccc21: -0.10
- O=C1Nc2ccc(F)c(F)c2/C1=C/c1c[nH]c2ccccc12: -2.40
- O=C1Nc2ccc(Cl)cc2/C1=C/c1c[nH]c2ccccc12: -2.00
- Cc1cccc(/C=C2\C(=O)Nc3ccccc32)c1: -0.20
- COc1ccc(Br)cc1/C=C1/C(=O)Nc2ccccc21: -2.00
- COc1ccc2c(/C=C3\C(=O)Nc4ccccc43)cn(C)c2c1: -2.20
